Origin of measurements: PubChem BioAssay (NCI)

System: UACC-257 melanoma
Experiment summary: NCI-60 one-dose screen, 48 h (100 = growth as untreated, 0 = no growth, -100 = all killed)
Measurement setup: 10 µM unless noted
About 83,000 compounds went through this panel and 20% of them were active in at least one assay; those are over-represented in the sample as a whole.
Measure name: growth (%)

# Molecule, Measure name, Number
data = [
    ("Ic1cccs1", "growth", 99.5),
    ("C=COC(=O)CCOCC(CC)CCCC (stereo not drawn)", "growth", 108),
    ("OC(CCN1CCCCC1)(c1ccccc1)c1ccccc1", "growth", 100),
    ("C=C(c1ccc(N(C)C)cc1)c1ccc(N(C)C)cc1", "growth", 52.3),
    ("CC(=O)c1cccc(O)c1", "growth", 99.3),
    ("CC1CN(CCO)CC(C)O1 (stereo not drawn)", "growth", 105),
    ("Nc1nnc2cc(F)ccc2n1", "growth", 110),
    ("CN(C(=S)S(=O)(=O)C12CC3CC(CC(C3)C1)C2)c1ccccc1", "growth", 87.3),
]

###

Test system: RPMI-8226 leukemia
Experiment summary: NCI-60 one-dose screen, 48 h (100 = growth as untreated, 0 = no growth, -100 = all killed)
Measurement setup: 10 µM unless noted
This is part of a sample that, as a whole, favours compounds with a hit. Of some 83,000 tested, about 20% had one in any assay.
Measured growth accompanies every entry in the list below.

# Compound, growth / %
measured = [
    ("COC1OC(C(O)C(O)CO)C(O)C(O)C1O (stereo unspecified)", 93.3),
    ("Nc1c(Br)cc(O)c2c1C(=O)c1ccccc1C2=O", 84),
    ("Cc1ccc(S(=O)(=O)NC(=O)NCCSSCCNC(=O)NS(=O)(=O)c2ccc(C)cc2)cc1", 99.8),
    ("Cc1cc(Nc2ccc3c(c2)OCO3)c2cc3c(cc2n1)OCO3", -19.9),
    ("CCOC(=O)c1cc(Cl)c(O)c(Cl)c1", 101),
    ("Clc1cccc(Cl)c1CSc1nc2ccccc2n2cccc12", 96.1),
]

###

Test system: NCI-H522 lung
Experiment summary: NCI-60 one-dose screen, 48 h
Measurement setup: 10 µM unless noted
About 83,000 compounds went through this panel and 20% of them were active in at least one assay; those are over-represented in the sample as a whole. Calls of active or inactive are those of the source. Rule for the calls: active = growth percent below 10; inactive = the rest.
Labels: 1 for active, -1 for inactive

# Molecule, Cat
measured = [
    ("Cc1c(Cl)cccc1NC(=S)NC(=O)c1ccccc1", -1),
    ("COc1ccc(C(=O)C(=O)c2ccccc2)cc1", -1),
    ("BrCc1cccc(C[P+](c2ccccc2)(c2ccccc2)c2ccccc2)c1", -1),
    ("Nc1cccc2cccc(O)c12", -1),
    ("CCNCC(C)(C)O", -1),
    ("O=C1NC(=O)C(c2ccccc2)O1 (stereo unspecified)", -1),
    ("CCCCCCCCCCC(=O)CCCCCCCCCC", -1),
    ("COc1nc(Nc2cccc(C(F)(F)F)c2)nc(OC)n1", -1),
    ("CCOc1ccc2c(c1)c(C)cc(C)[n+]2CC", -1),
    ("N#Cc1ccc(OC(=O)Nc2cc(Cl)cc(Cl)c2)cc1", 1),
    ("C=CC(C)(C)n1cc(C2=C(O)C(=O)C(c3cn(C(C)(C)C=C)c4ccccc34)=C(O)C2=O)c2ccccc21", -1),
    ("COC1OC(COC(C)=O)C(OC(C)=O)C(OC(C)=O)C1OC(C)=O (stereo unspecified)", -1),
    ("C=CCS(C)(=O)=O", -1),
    ("CCN(C(=O)Nc1ccccc1Cl)c1ccccc1", -1),
    ("Cc1cc(NC(=O)c2ccccc2)c(Cl)cc1N", -1),
    ("Cc1cc(Nc2ccc3c(c2)OCO3)c2cc3c(cc2n1)OCO3", 1),
    ("Nc1ncnc(Nc2ccccc2)n1", -1),
    ("Clc1ccc(-c2noc(/C=C\\c3ccccc3)n2)cc1", -1),
    ("O=Cc1ccc(O)c(O)c1", -1),
    ("O=C(Nc1cccc(Cl)c1)c1ccc(Cl)cc1Cl", -1),
    ("C=CC1=NC(C)(C)CC(C)O1 (stereo unspecified)", -1),
    ("CN1C(=O)NC(c2ccc(Cl)cc2)(c2ccc(Cl)cc2)C1=O", -1),
    ("C=CCNC(=S)N/C=C(/C(=O)c1ccccc1)c1ccccc1", -1),
    ("C=CCC(OC(C)=O)c1ccc(OC)c(OC)c1 (stereo unspecified)", -1),
    ("Cc1ccc(NCN2C(=O)c3ccccc3C2=O)c(C)n1", -1),
    ("CSCC[C@@H]1C(=O)N(C)[C@H](C(C)(C)C)N1C(=O)c1ccccc1", -1),
    ("CCOC(=O)/C(O)=C(\\C=N\\C(=S)Nc1ccc(Cl)c(Cl)c1)C(=O)OCC", -1),
    ("Cc1cc2c3ccc(C)[n+](C)c3ccc2n1C", -1),
    ("CC(C)(C)NCCC(O)c1cc(C(F)(F)F)nc2c(C(F)(F)F)cccc12 (stereo unspecified)", -1),
    ("O=c1cc(C(F)(F)F)[nH]c(=S)[nH]1", -1),
    ("O=Cc1ccc(Cl)c(Cl)c1", -1),
    ("C=COC(=O)CCOCC(CC)CCCC (stereo unspecified)", -1),
    ("CC1(C)CCC(C)(C)NC(=S)N1", -1),
    ("Oc1ccc2ccccc2c1CN1CCOCC1", -1),
    ("Cc1nc(O)cc(=O)[nH]1", -1),
    ("CC(=O)Nc1ccc(C(=O)c2ccc(S(=O)(=O)Nc3ccccc3)cc2)cc1", -1),
    ("Cc1[nH]nc(C(N)=O)c1[N+](=O)[O-]", -1),
    ("CC(=O)Nc1ncc(S(=O)(=O)c2ccc([N+](=O)[O-])cc2)s1", -1),
    ("CCOC(=O)c1c(C)[nH]c(C)c1C=O", -1),
    ("C/C(O)=C(/C=N\\C(=S)Nc1ccc(S(=O)(=O)Nc2nccs2)cc1)C(=O)Nc1ccccc1C", -1),
    ("O=C1C=C(c2ccccc2)C(O)(c2ccccc2)C1 (stereo unspecified)", -1),
]

###

System: HOP-62 NSCLC
Experiment summary: NCI-60 one-dose screen, 48 h
Measurement setup: 10 µM unless noted
This is part of a sample that, as a whole, favours compounds with a hit. Of some 83,000 tested, about 20% had one in any assay. Calls of active or inactive are those of the source. The calls were made as follows: active = growth percent below 10; inactive = the rest.
Outcome codes: Y for active, N for inactive

# Molecule, Cat
records = [
    ("CC(=O)C1C(=O)C(=O)N(c2ccc(Cl)c(Cl)c2)C1=O (stereo not drawn)", "N"),
    ("COC1OC(C(COC(C)=O)OC(C)=O)C(OC(C)=O)C(OC(C)=O)C1OC(C)=O (stereo not drawn)", "N"),
    ("CC(C)(CC(=O)O)CC(=O)O", "N"),
    ("Nc1ccn(C2CC(N)C(CO)O2)c(=O)n1 (stereo not drawn)", "N"),
    ("CN(C)c1ccc(/C=C/C(=O)c2ccc(NC(N)=O)cc2)cc1", "N"),
    ("CN(C)c1ccc2nc3ccc(=[N+](C)C)cc-3oc2c1", "Y"),
    ("COc1cc(OC)c(NC(=O)C(Sc2nc(C)cc(C)c2C#N)c2ccccc2)cc1Cl (stereo not drawn)", "N"),
    ("Cc1ccc(N2C(=O)c3cccc4c(N)c(S(=O)(=O)O)cc(c34)C2=O)cc1", "N"),
    ("C=CCC(OC(C)=O)c1ccc(OC)c(OC)c1 (stereo not drawn)", "N"),
    ("O=[n+]1ccn([O-])c2ccccc21", "N"),
    ("COc1ccc(Br)c(C=O)c1", "N"),
    ("N#C/C(=C\\c1ccc2c(c1)OCO2)c1ccccc1", "N"),
    ("CC1CC(C)S(=O)(=O)C1 (stereo not drawn)", "N"),
    ("CS(=O)(=O)c1ccc(/C=C\\C(=O)O)cc1", "N"),
    ("COc1cc(C(=O)O)c(O)c(C(C)(C)C)c1", "N"),
    ("O=C(O)C1CSC(c2ccccc2)N1 (stereo not drawn)", "N"),
    ("Nc1cc(F)ccc1[N+](=O)[O-]", "N"),
    ("Cc1cc(NC(=O)c2ccccc2)c(Cl)cc1N", "N"),
]

###

# key: entry, value: growth
System: MCF7 breast
Experiment summary: NCI-60 one-dose screen, 48 h (100 = growth as untreated, 0 = no growth, -100 = all killed)
Measurement setup: 10 µM unless noted
Compounds without any hit were thinned out: in the full panel of roughly 83,000, 20% have a hit.

# Smi, growth, %
measured = [
    ("O=C1CSc2ccccc2N1", 98.5),
    ("Clc1ccc(/C=C/c2ccccn2)cc1", 25.9),
    ("CC(=O)c1cccc(N(C)S(=O)(=O)c2ccc(C)cc2)c1", 60.5),
    ("C/C(=N\\O)c1ccccn1", 99.9),
    ("O=C1C=CC(=O)C2=C1CCCC2", 70.6),
    ("Cc1cccc2ccccc12", 84.1),
    ("c1ccc(-c2ccc3ccccc3c2)cc1", 82.2),
    ("N#Cc1ccc(OC(=O)Nc2c(Cl)cc(Cl)cc2Cl)cc1", 100),
    ("CC(=O)N(C(C)=O)c1ccc(C)cc1", 87.6),
    ("Cc1ccc2[nH]c3ccccc3c2c1", 104),
]
